test: Solubility in DMSO; format: physicochemical; settings: 20 °C, organic solvent or mixture
measured_attribute: solubility (mg/mL)
Unit mg/mL implied. Number only.

Which solubility reading was recorded for the compound CCCCCCCCC=CCCCCCCCCCCCCCC(=O)N[C@@H](OC1OC(CNC(C)=O)C(O)C(O)C1O)C(O)[C@H](O)CCCCCCCCCCCCCC (some centres unmarked) ?
20

----------
experiment: Solubility in DMSO; format: physicochemical; conditions: 20 °C, organic solvent or mixture, molar value printed in parentheses
measured_attribute: solubility

Which solubility is reported for this molecule? CCCCCCCCC=CCCCCCCCCCCCCCC(=O)N[C@@H](OC1OC(CNC(C)=O)C(O)C(O)C1O)C(O)[C@H](O)CCCCCCCCCCCCCC (stereo partly shown)
22.4 mM
